// data source = PubChem BioAssay AID618

test: inhibitors of MT1-MMP promoter transcription, cell-based, luciferase reporter, luminescence (AID 618); settings: MT1-MMP promoter luciferase reporter cells;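 further: actives suppress MT1-MMP promoter-driven transcription so potencies describe inhibitors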
About 540 (0.62%) of roughly 87,000 compounds were called active. How the calls were made is not given here. The entries come from a sample that favours actives as a whole. Potency and affinity values are given separately.
// allowed return values: active, inactive

CCOC(=O)c1cnc(C(C)(C)C)[nH]c1=O : inactive
CC(C)c1nc(=S)c2ccccc2[nH]1 : inactive
CC1=CC(C)(C)N2C(=O)C3(C(C#N)=C(N)Oc4cc(C)oc(=O)c43)c3cc(C)cc1c32 (stereo unspecified) : inactive
CC(C)Oc1ccccc1C1CC(=O)Nc2cc3c(cc21)OCO3 (stereo unspecified) : active

What is the recorded call for this molecule in the test? CCCOc1ccccc1C1CC(=O)Nc2cc3c(cc21)OCCO3 (stereo unspecified)
inactive

Hi, do you know how CCOC(=O)CNC(=O)C(CC(C)C)NC(=O)C1CCCCC1 (stereo unspecified) came out in this test?
inactive

Tell me the recorded outcome of this test for COc1ccccc1-c1coc2c(CN3CCN(CCO)CC3)c(O)ccc2c1=O .
inactive

I would be grateful if you could indicate the recorded call for C=CCn1c(=O)c2ccccc2n2c(SCc3csc(-c4ccccc4)n3)nnc12 .
inactive

// outcome(item) with item = CCOc1ccccc1C1CC(=O)Nc2cc3c(cc21)OCO3 (stereo unspecified)
active

Per the assay record, what outcome was assigned to CCN(CC(O)Cn1c2ccccc2c2ccccc21)S(=O)(=O)c1ccc(C)cc1 (stereo unspecified) ?
inactive

Kindly provide the recorded test outcome for the following molecule: COc1ccccc1Oc1ccc2c(c1)C(=O)N(c1cccc(O)c1)C2=O
inactive

====

experiment: inhibitors of MT1-MMP promoter transcription, cell-based, luciferase reporter, luminescence (AID 618); conditions: MT1-MMP promoter luciferase reporter cells
Hit rate of the full screen: of about 87,000 compounds, about 540 (0.62%) were called active. The rule behind the calls is not given here. Only a selection was taken, and actives are over-represented in it overall. Measured potencies and affinities stand elsewhere.
Permitted responses: active, inactive

Reference set, count: 5
COc1ccc(NS(=O)(=O)c2cc(C)ccc2C)cc1 : inactive
CCN1/C(=C/c2ccc3ccccc3[n+]2CC)C=Cc2ccccc21 : active
CCN1C(=C2C(=O)c3ccccc3C2=O)C=Cc2ccccc21 : inactive
Clc1c(CSc2nc3ccccc3o2)nc2sccn12 : inactive
COc1ccc2nc(NC(=O)c3cc(C)oc3C)sc2c1 : inactive

Dear all, I need the recorded test outcome for O=C(NCCOc1ccccc1)c1ccc2c(c1)OCO2 , thank you.
active

// return assay outcome for CCOCCCNC(=O)c1ccc2c(c1)OCO2
inactive

Answer briefly: the call reported for COc1ccc(C2=NOC(C(=O)NCc3cccs3)C2)cc1 (configuration not stated) in this assay.
inactive

Outcome? COc1ccc(C)c(S(=O)(=O)Nc2ccc(OCC(=O)O)cc2)c1
inactive

Recorded call for Cc1cc(OCC(=O)N2CCc3ccccc3C2)c2c(-c3ccccc3)cc(=O)oc2c1 ?
inactive

Just curious, what result did COCCCNC(=O)c1ccc2c(c1)OCO2 get here?
inactive

Entry COc1ccc(C2=NOC(C(=O)NCc3cccs3)C2)cc1OC (configuration not stated) : call = ?
active

====

assay: inhibitors of MT1-MMP promoter transcription, cell-based, luciferase reporter, luminescence (AID 618); conditions: MT1-MMP promoter luciferase reporter cells
The whole screen tested about 87,000 compounds, of which about 540 (0.62%) were called active. The rule behind the calls is not given here. The entries come from a sample that favours actives as a whole. Measured potencies and affinities stand elsewhere.
// allowed return values: label 1 for active, label 0 for inactive

Use the examples below as a reference point.
Cc1ccc(Nc2nc(N3CCOCC3)c3ccccc3n2)cc1 : label 0
O=C(Nc1ccc(S(=O)(=O)N2CCOCC2)cc1)c1cccs1 : label 0
OCCNc1nc(Nc2ccccc2)nc2ccccc12 : label 0
CCOC(=O)c1[nH]c(C)c(C(=O)NCCCOC(C)C)c1C : label 0
CCOP(=O)(c1ccccc1Cl)C1(O)CCCCC1 (centres undefined) : label 0
Cc1cnc(NC(=O)COc2cccc3c2OC(C)(C)C3)s1 : label 0
Cc1ccc(OCC(=O)Nc2ccc(N3CCOCC3)cc2)cc1 : label 0
C=CS(=O)(=O)c1ccc(Oc2ccc(S(=O)(=O)C=C)cc2)cc1 : label 1

I would be grateful if you could indicate the recorded call for O=C(C1CCCN(S(=O)(=O)c2cnc[nH]2)C1)N1CC(=O)N(CCc2ccccc2)C(=O)C1 (centres undefined) .
label 0

Hey, what did the test say about COc1ccc(-c2n[nH]c(C)c2-c2cc(OC)ccc2O)cc1 ?
label 0

// param item: Cc1cnc(NC(=O)COc2ccccc2Cl)s1 ; yields the recorded call
label 1

Please share the test call associated with COCc1nnc(NS(=O)(=O)c2c(C)cc(C)cc2C)s1 .
label 0

Hi, do you know how O=C(C1CCCN(Cc2ccccc2)C1)N1CCc2ccccc2C1 (centres undefined) came out in this test?
label 0

====

assay: inhibitors of MT1-MMP promoter transcription, cell-based, luciferase reporter, luminescence (AID 618); conditions: MT1-MMP promoter luciferase reporter cells
The campaign covered roughly 87,000 compounds. About 540 (0.62%) were called active. How the calls were made is not given here. The list comes from a sample in which actives are over-represented; it also holds close analogues and randomly drawn compounds. Measured potencies and affinities stand elsewhere.
Hi there, use one of these labels in your reply, thanks! yes (active), no (inactive)

Some solved entries appear below for comparison.
COCc1cc(C)nc2sc(C(=O)Nc3nccs3)c(N)c12 : no
O=C(O)c1cc(/C=N\O)ccc1OCc1ccccc1 : no
CCOC(=O)c1sc2nc(C)cc(C)c2c1N : no
COc1cc(/C=N/O)ccc1OCc1ccc(C(=O)O)cc1 : yes
Cc1noc(C)c1CSc1nnc2n(-c3ccccc3)c(=O)c3ccccc3n12 : no
Cc1cc(C)c2c(N)c(C(=O)NC3CC3)sc2n1 : no

Per the records of this test, what outcome belongs to COc1cc(C(N)=O)ccc1OCc1ccccc1 ?
no

====

assay: inhibitors of MT1-MMP promoter transcription, cell-based, luciferase reporter, luminescence (AID 618); details: MT1-MMP promoter luciferase reporter cells;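 further: actives suppress MT1-MMP promoter-driven transcription so potencies describe inhibitors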
About 540 (0.62%) of roughly 87,000 compounds were called active. No rule for the calls is given here. This excerpt belongs to a sample that is enriched for actives. Results with a measured potency or affinity are listed apart.
Parameter call: string, one of Y = active, N = inactive

Solved cases (5 shown):
Cc1ccc(C)c(NC(=O)CSc2nnc(-c3ccccc3)o2)c1 : N
COc1ccccc1NC(=O)CSc1nnc(-c2ccc(C)cc2)o1 : N
Cc1cccc(NC(=O)CSc2nnc(-c3ccccc3C)o2)c1 : N
COc1ccc(C(CNC(=O)c2ccc(-n3cnnn3)cc2)N2CCOCC2)cc1 (stereo unspecified) : N
CCOc1ccccc1-c1nnc(SCC(=O)Nc2ccccc2)o1 : N

# next molecule below
Per the assay record, what outcome was assigned to CCOC(=O)c1c(C)oc2c(F)c(F)c(F)c(F)c2c1=O ?
Y

====

experiment: inhibitors of MT1-MMP promoter transcription, cell-based, luciferase reporter, luminescence (AID 618); settings: MT1-MMP promoter luciferase reporter cells;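 further: actives suppress MT1-MMP promoter-driven transcription so potencies describe inhibitors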
Hit rate of the full screen: of about 87,000 compounds, about 540 (0.62%) were called active. The sample as a whole holds a higher share of actives than the screen did. Measured potencies and affinities stand elsewhere.
Recorded Metric: outcome

Below are worked cases with known answers.
COc1ccc(-n2c(Cc3cccn3C)nnc2SCC(=O)Nc2cccc(NC(C)=O)c2)cc1 : inactive
COc1cccc(-c2nc3ccc(O)cc3c(=O)o2)c1 : inactive
N#C/C(=C\c1ccc[nH]1)Sc1nc2ccccc2s1 : inactive
CCOC(=O)c1ccc(NC(=O)N2CCc3ccccc32)cc1 : inactive

Hi there! I need outcome for each item below, if you can.
1. CCOC(=O)CSC1=C(C#N)C(c2ccccc2OC)CC(=O)N1 (stereo unspecified)
2. CC1(c2ccccc2)NC(=O)N(CC(=O)N2CCOCC2)C1=O (stereo unspecified)

1. inactive
2. inactive

For each listed entry, give its outcome.
1. CCOC(=O)CSC1=C(C#N)C(c2ccc(C)s2)CC(=O)N1 (stereo unspecified)
2. O=C1NC2(CCOc3ccccc32)C(=O)N1CC(=O)N(Cc1ccccc1)C1CCS(=O)(=O)C1 (stereo unspecified)
3. Cc1cc(NC(=O)CSc2nc3c(c(=O)n2CCc2ccccc2)SC(C)C3)no1 (stereo unspecified)
4. CCCCCCSC1=C(C#N)C(c2ccc(C)o2)CC(=O)N1 (stereo unspecified)
5. CCOC(=O)CSC1=C(C#N)C(c2ccc(C)o2)CC(=O)N1 (stereo unspecified)

1: active; 2: inactive; 3: inactive; 4: inactive; 5: active

====

assay: inhibitors of MT1-MMP promoter transcription, cell-based, luciferase reporter, luminescence (AID 618); details: MT1-MMP promoter luciferase reporter cells;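 further: actives suppress MT1-MMP promoter-driven transcription so potencies describe inhibitors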
Among all 87,000 compounds or so, about 540 (0.62%) were called active. How the calls were made is not given here. Shown is part of a subset that was picked to be rich in actives. Results with a measured potency or affinity are listed apart.
Outcomes you can answer with include only these: Y (active), N (inactive)

Consider the following illustrative entries.
C=COCCn1c(=N)n(CCC)c2ccccc21 : N
COc1ccc(-c2nnc3ccc(SCC(=O)N4CCCC4)nn23)cc1 : N
O=C(Nc1ccccc1)NC1CC2CCC(C1)N2Cc1nnnn1Cc1ccc2c(c1)OCO2 (centres undefined) : N
Cc1nc2cc(NC(=O)N3c4ccccc4CC3C)ccc2o1 (centres undefined) : N
Cc1[nH]c2ccccc2c1/C=N/n1cnnc1 : N

Called result for Cc1nn(C)c(C)c1CN(C)C(=O)c1cc2n(n1)C(C(F)(F)F)CC(c1cccs1)N2 (centres undefined)
N
